test.method.notes: ATG_Sox_CIS: Attagene CIS-FACTORIAL HepG2 Assay for human SRY-box transcription factor (SOX) (AID 2282960)
cond: HepG2 Attagene cis-factorial SOX reporter, mRNA; actives raise or lower the signal
The source made the active and inactive calls. The calls were made as follows: active = hit-call score of the fitted dose curve at least 0.9, where 1 is the maximum; inactive = score below 0.9.
readout.name: outcome

These recorded examples may help you get a feel for the data.
| compound | reported.measurement |
| --- | --- |
| O=C(Nc1ccccc1-c1ccc(Cl)cc1)c1cccnc1Cl | inactive |
| CCOC(=O)C(C)OC(=O)c1cc(Oc2ccc(C(F)(F)F)cc2Cl)ccc1[N+](=O)[O-] (stereo not given) | inactive |
| CC(C)N1C(=O)N(c2ccccc2)CSC1=NC(C)(C)C | inactive |
| CC(C)NC(=O)N1CC(=O)N(c2cc(Cl)cc(Cl)c2)C1=O | inactive |

// recorded outcome for `COc1cc(OC)nc(NC(=O)NS(=O)(=O)c2ncccc2OCC(F)(F)F)n1` : inactive

----------
test.method.notes: APR_HepG2_p53Act_1hr: Apredica 1-hour HepG2 Assay for p53 Activation (AID 2282671)
cond: high-content imaging, actives raise or lower the signal
Active and inactive are the calls of the source. How the source made its calls: active means hit-call score of the fitted dose curve at least 0.9, where 1 is the maximum; inactive means score below 0.9.
Your response should consist of one outcome taken from active, inactive

Worked examples follow.
| compound | discrete.label |
| --- | --- |
| COCC(=O)N(c1c(C)cccc1C)C(C)C(=O)OC (configuration not stated) | inactive |
| Cn1c(-c2ccccc2)cc(-c2ccccc2)[n+]1C | inactive |
| CCCC(=NOCC)C1=C(O)CC(CC(C)SCC)CC1=O (configuration not stated) | inactive |

Name the outcome recorded for `CC(C)N1C(=O)c2ccccc2NS1(=O)=O` in the assay.
inactive

----------
system.under.test: Estrogen receptor beta (Homo sapiens)
test.method.notes: OT_ER_ERbERb_0480: Odyssey Thera (OT) 8-hour HEK293T Protein-Complementation Assay for Estrogen Receptor-beta/-beta Homodimer (AID 2283357);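 also: active means signal gain over DMSO baseline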
Method: OT_ER_ERbERb_0480 is a cell-based assay that uses HEK293T, a human kidney cell line, with measurements taken at 8 hours after chemical dosing in a 384-well plate.OT_ER_ERbERb_0480 is one of one assay component(s) measured or calculated from the OT_ER_ERbERb_0480 assay. […] This assay endpoint, OT_ER_ERbERb_0480, was analyzed in the positive analysis fitting direction relative to DMSO as the negative control and baseline of activity. […]
Inconclusive results are not listed. Active and inactive are the calls of the source. The calls were made as follows: active = hit-call score of the fitted dose curve at least 0.9, where 1 is the maximum; inconclusive = response in the unintended direction; inactive = score below 0.9.
Your response should consist of one outcome taken from Y (active), N (inactive)

| compound | discrete.label |
| --- | --- |
| O=c1n(Cl)c(=O)n(Cl)c(=O)n1Cl | N |
| CCOc1nc(F)cc2nc(S(=O)(=O)Nc3c(Cl)cccc3Cl)nn12 | N |
| Cc1cnc(C2=NC(C)(C(C)C)C(=O)N2)c(C(=O)O)c1 (stereo unspecified) | N |
| Nc1cnn(-c2ccccc2)c(=O)c1Cl | N |
| CC1(C)CON(Cc2ccccc2Cl)C1=O | N |
| Cc1ccc(N=CN(C)C=Nc2ccc(C)cc2C)c(C)c1 | N |

Name the outcome recorded for `COC(=O)NS(=O)(=O)c1ccc(N)cc1` in the assay.
N

----------
test.method.notes: CCTE_Shafer_MEA_acute_per_network_burst_spike_number_std: CCTE's Neural Acute Assay for Standard Deviation of Number of Spikes in a Network Burst, Shafer Lab (AID 2284020);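 also: fitted for decrease in spike-number SD versus DMSO so actives lower it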
Experimental: CCTE_Shafer_MEA_acute assay is conducted using Axion Biosystems 48 well microelectrode array (MEA) plates and Maestro recording system. Each well of the MEA plate contains a grid of 16 microelectrodes embedded in the culture surface. Electrically active cells, such as neurons, can be cultured over the electrodes, and electrical activity in these cells can be recorded extracellularly. […]
Active and inactive are the calls of the source. Rule for the calls: active = hit-call score of the fitted dose curve at least 0.9, where 1 is the maximum; inactive = score below 0.9.
readout.name: AC50

| molecule | reported.measurement |
| --- | --- |
| CCCC(=NOCC)C1=C(O)CC(CC(C)SCC)CC1=O (configuration not stated) | 25.4 µM (active) |
| CC(C)C1(C)N=C(c2ncccc2C(=O)O)NC1=O (configuration not stated) | inactive |
| CCOC(=O)C(C)OC(=O)c1cc(Oc2ccc(C(F)(F)F)cc2Cl)ccc1[N+](=O)[O-] (configuration not stated) | inactive |
| CCCN(CC)CC1COC2(CCC(C(C)(C)C)CC2)O1 (configuration not stated) | inactive |
| Cc1nc(N(C)C)nc(OC(=O)N(C)C)c1C | inactive |

// recorded AC50 for CCCCC(O)(Cn1cncn1)c1ccc(Cl)cc1Cl (configuration not stated) : inactive

// recorded AC50 for COCC(=O)N(c1c(C)cccc1C)C(C)C(=O)OC (configuration not stated) : inactive

// recorded AC50 for CC1(C)C(C(=O)OC(C#N)c2cccc(Oc3ccccc3)c2)C1(C)C (configuration not stated) : inactive

----------
test.method.notes: BSK_3C_Proliferation: Cell Proliferation Assessment in the BioMAP Diversity Plus: 3C Assay (AID 2283006)
cond: primary human endothelial cells (HUVEC)
Active and inactive are the calls of the source. The calls were made as follows: active = hit-call score of the fitted dose curve at least 0.9, where 1 is the maximum; inactive = score below 0.9.
Your response should consist of one outcome taken from active, inactive

| compound | discrete.label |
| --- | --- |
| CC(C)(C)C(=O)C(Oc1ccc(Cl)cc1)n1cncn1 (configuration not stated) | inactive |
| COc1cc(OC)nc(NC(=O)NS(=O)(=O)c2ncccc2OCC(F)(F)F)n1 | inactive |
| CCOc1nc(C(Cl)(Cl)Cl)ns1 | inactive |
| C=C(C)CN(CC)c1c([N+](=O)[O-])cc(C(F)(F)F)cc1[N+](=O)[O-] | active |
| Cc1cnc(C2=NC(C)(C(C)C)C(=O)N2)c(C(=O)O)c1 (configuration not stated) | inactive |
| CC(C)N1C(=O)c2ccccc2NS1(=O)=O | inactive |
| CN/C(=N\[N+](=O)[O-])NCc1cnc(Cl)s1 | inactive |
| Cc1c(COC(=O)[C@@H]2[C@H](/C=C(\Cl)C(F)(F)F)C2(C)C)cccc1-c1ccccc1 | active |

Name the outcome recorded for `O=C(O)c1c(Cl)ccc2cc(Cl)cnc12` in the assay.
inactive

Name the outcome recorded for CCN(CC)C(=O)C(C)Oc1cccc2ccccc12 (configuration not stated) in the assay.
active

Name the outcome recorded for `N#Cc1c(Cl)cccc1Cl` in the assay.
inactive

Name the outcome recorded for COCC(C)N(C(=O)CCl)c1c(C)csc1C (configuration not stated) in the assay.
inactive

----------
test.method.notes: CCTE_Shafer_MEA_dev_inter_network_spike_interval_mean: CCTE's Neural Network Formation Assay for Mean Inter-network Spike Interval, Shafer Lab (AID 2284047)
The source made the active and inactive calls. The calls were made as follows: active = hit-call score of the fitted dose curve at least 0.9, where 1 is the maximum; inactive = score below 0.9.
Your response should consist of one outcome taken from YES = active, NO = inactive

| molecule | discrete.label |
| --- | --- |
| CCCN(CC)CC1COC2(CCC(C(C)(C)C)CC2)O1 (stereo not drawn) | YES |

Kindly review the next molecule as well.
Name the outcome recorded for `CS(=O)(=O)c1ccc(C(=O)C2C(=O)CCCC2=O)c([N+](=O)[O-])c1` in the assay.
NO

----------
test.method.notes: CCTE_Shafer_MEA_acute_per_network_burst_spike_number_mean: CCTE's Neural Acute Assay for Average Number of Spikes in a Network Burst, Shafer Lab (AID 2284019)
Activity calls are given as the source filed them. How the source made its calls: active means hit-call score of the fitted dose curve at least 0.9, where 1 is the maximum; inactive means score below 0.9.

| compound | outcome |
| --- | --- |
| CCCN(CC)CC1COC2(CCC(C(C)(C)C)CC2)O1 (stereo not drawn) | inactive |
| CNC(=O)Oc1cccc2ccccc12 | inactive |
| Nc1c(Cl)c(F)nc(OCC(=O)O)c1Cl | inactive |

----------
test.method.notes: Tanguay_ZF_120hpf_AXIS_legacy: (Legacy) Oregon State University Tanguay Lab 120 Hour Post-fertilization zebrafish Assay for Body Axis Malformation (AID 2283635);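 as to AC50: potency for an increased fraction of larvae scored with body axis malformation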
Records with an inconclusive call do not appear. Active and inactive are the calls of the source. How the source made its calls: active means hit-call score of the fitted dose curve at least 0.9, where 1 is the maximum; inconclusive means response in the unintended direction; inactive means score below 0.9.
readout.name: AC50

These recorded examples may help you get a feel for the data.
| compound | AC50 |
| --- | --- |
| CC(C)NC(=O)N1CC(=O)N(c2cc(Cl)cc(Cl)c2)C1=O | inactive |
| CCNC(=O)NC(=O)C(C#N)=NOC | 46 µM (active) |
| CCOc1cc(C(C)(C)C)ccc1C1COC(c2c(F)cccc2F)=N1 (configuration not stated) | inactive |
| Cc1ccc(N=CN(C)C=Nc2ccc(C)cc2C)c(C)c1 | inactive |

// recorded AC50 for `COC(=O)NS(=O)(=O)c1ccc(N)cc1` : inactive

// recorded AC50 for CCCCC(C#N)(Cn1cncn1)c1ccc(Cl)cc1 (configuration not stated) : 56 µM (active)

// recorded AC50 for `CS(=O)(=O)c1cc(C(F)(F)F)ccc1C(=O)c1cnoc1C1CC1` : inactive

// recorded AC50 for CC1(C)C(C(=O)OC(C#N)c2cccc(Oc3ccccc3)c2)C1(C)C (configuration not stated) : inactive

----------
Read-out: Cyclin Dependent Kinase Inhibitor 1A (CDKN1A), CDKN1A (gene 1026)
test.method.notes: LTEA_HepaRG_CDKN1A: Life Technologies and Expression Analysis (LTEA) Assay for Cyclin Dependent Kinase Inhibitor 1A (CDKN1A) using HepaRG (AID 2283450)
cond: mRNA level, 48 h; actives raise or lower the signal
Experimental: LTEA_HepaRG is a cell based, multiplexed-readout assay that uses HepaRG, a human liver cell line, with measurements taken at 48 hours after chemical dosing on a 96-well plate.LTEA_HepaRG_CDKN1A is one of 102 assay component(s) measured in the LTEA HepaRG cell culture assay. It is a marker of Cell proliferation, survival, death.Data from the assay component LTEA_HepaRG_CDKN1A was analyzed into 1 endpoint. […]
Active and inactive are the calls of the source. Rule for the calls: active = hit-call score of the fitted dose curve at least 0.9, where 1 is the maximum; inactive = score below 0.9.
Your response should consist of one outcome taken from active, inactive

Worked examples follow.
| compound | discrete.label |
| --- | --- |
| CCCCOCN(C(=O)CCl)c1c(CC)cccc1CC | inactive |
| CCOc1nc(C(Cl)(Cl)Cl)ns1 | inactive |
| CC1(C)C(C=C(Cl)Cl)C1C(=O)OC(C#N)c1cccc(Oc2ccccc2)c1 (configuration not stated) | inactive |
| CN=C=S | inactive |
| C=C(C)CN(CC)c1c([N+](=O)[O-])cc(C(F)(F)F)cc1[N+](=O)[O-] | inactive |

Kindly review the next compound as well.
Name the outcome recorded for COCC(C)N(C(=O)CCl)c1c(C)csc1C (configuration not stated) in the assay.
inactive
